The measurements presented in this section are drawn from BindingDB's records for doi:10.1016/j.bmcl.2006.08.053.

- Experiment: Release of camptothecin-induced cell cycle arrest in NCI-H1299 cells mediated by CHEK1 inhibition
Quantity kind: EC50 (µM)

Some entries whose results are on file:
O=c1[nH]c2ccc(-n3ccnc3)cc2cc1-c1cc2cc(CN3CCCCC3)ccc2[nH]1: 0.32
Cn1cc(-c2ccc3[nH]c(=O)c(-c4cc5cc(CN6CCCCC6)ccc5[nH]4)cc3c2)cn1: 0.13
O=c1[nH]c2ccc(-n3ccnn3)cc2cc1-c1cc2cc(CN3CCCCC3)ccc2[nH]1: 0.23
O=c1[nH]c2ccc(Br)cc2cc1-c1cc2cc(CN3CCCCC3)ccc2[nH]1: 0.46
Cn1nnc(-c2ccc3[nH]c(=O)c(-c4cc5cc(CN6CCCCC6)ccc5[nH]4)cc3c2)n1: 1.3
O=c1[nH]c2ccc(-c3cnsc3)cc2cc1-c1cc2cc(CN3CCCCC3)ccc2[nH]1: 0.19
O=c1[nH]c2ccc(-c3cn[nH]c3)cc2cc1-c1cc2cc(CN3CCC(F)CC3)ccc2[nH]1: 0.12
N#Cc1ccc2[nH]c(=O)c(-c3cc4cc(CN5CCCCC5)ccc4[nH]3)cc2c1: 0.17
O=c1[nH]c2ccc(-c3cn[nH]c3)cc2cc1-c1cc2cc(CN3CCCCC3)ccc2[nH]1: 0.097
N#Cc1ccc2[nH]c(=O)c(-c3cc4cc(CN5CCC(CN)CC5)ccc4[nH]3)cc2c1: 3.7

I: NC(=O)c1ccc2[nH]c(=O)c(-c3cc4cc(CN5CCCCC5)ccc4[nH]3)cc2c1
II: O=c1[nH]c2ccc(-n3nccn3)cc2cc1-c1cc2cc(CN3CCCCC3)ccc2[nH]1
III: NCC1CCN(Cc2ccc3[nH]c(-c4cc5cc(C(N)=O)ccc5[nH]c4=O)cc3c2)CC1
IV: O=c1[nH]c2ccc(-c3cc[nH]n3)cc2cc1-c1cc2cc(CN3CCCCC3)ccc2[nH]1
Put the items in order so that reported EC50 rises from first to last. Answer by listing the labels in the order asked for. IV, I, II, III

P: CC(=O)N1CCN(Cc2ccc3[nH]c(-c4cc5cc(-c6cnn(C)c6)ccc5[nH]c4=O)cc3c2)CC1
Q: COCC(=O)N1CCN(Cc2ccc3[nH]c(-c4cc5cc(-c6cn[nH]c6)ccc5[nH]c4=O)cc3c2)CC1
# compare EC50 for P vs Q ; return the one with the smaller value Provide the label of your selected option as the answer. P

a: O=c1[nH]c2ccc(-c3cn[nH]c3)cc2cc1-c1cc2cc(CN3CCOCC3)ccc2[nH]1
b: CC(=O)N1CCN(Cc2ccc3[nH]c(-c4cc5cc(-c6cn[nH]c6)ccc5[nH]c4=O)cc3c2)CC1
Select one. Lower EC50: a or b Response format: the label of the selected entry. a
(a: 0.17 µM, b: 0.87 µM)
